In this section, each of the compounds is paired with its reported pEC50.
Biological target: soluble guanylate cyclase (human GUCYA3 and GUCYB3) overexpressed in CHO cells (Homo sapiens (Human), UniProt Q02108+Q02153)
Sequence (Q02108 whole entry partner): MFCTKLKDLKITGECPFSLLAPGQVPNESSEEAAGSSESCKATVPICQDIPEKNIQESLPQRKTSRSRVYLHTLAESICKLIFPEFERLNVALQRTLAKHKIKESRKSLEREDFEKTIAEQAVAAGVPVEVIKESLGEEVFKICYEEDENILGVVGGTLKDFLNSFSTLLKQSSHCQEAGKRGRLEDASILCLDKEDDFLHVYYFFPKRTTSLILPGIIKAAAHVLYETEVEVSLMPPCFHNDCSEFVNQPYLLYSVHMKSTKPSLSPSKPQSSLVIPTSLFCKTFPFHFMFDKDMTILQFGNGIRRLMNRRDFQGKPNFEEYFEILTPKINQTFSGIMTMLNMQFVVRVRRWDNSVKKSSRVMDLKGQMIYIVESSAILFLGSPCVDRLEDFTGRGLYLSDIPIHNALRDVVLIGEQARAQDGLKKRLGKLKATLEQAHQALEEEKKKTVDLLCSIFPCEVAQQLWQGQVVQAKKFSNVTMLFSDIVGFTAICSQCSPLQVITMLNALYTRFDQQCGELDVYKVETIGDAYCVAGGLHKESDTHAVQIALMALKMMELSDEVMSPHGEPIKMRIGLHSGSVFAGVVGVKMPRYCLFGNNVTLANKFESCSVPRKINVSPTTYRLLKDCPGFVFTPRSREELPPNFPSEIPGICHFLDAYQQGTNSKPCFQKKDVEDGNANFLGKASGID
Sequence (Q02153 whole entry): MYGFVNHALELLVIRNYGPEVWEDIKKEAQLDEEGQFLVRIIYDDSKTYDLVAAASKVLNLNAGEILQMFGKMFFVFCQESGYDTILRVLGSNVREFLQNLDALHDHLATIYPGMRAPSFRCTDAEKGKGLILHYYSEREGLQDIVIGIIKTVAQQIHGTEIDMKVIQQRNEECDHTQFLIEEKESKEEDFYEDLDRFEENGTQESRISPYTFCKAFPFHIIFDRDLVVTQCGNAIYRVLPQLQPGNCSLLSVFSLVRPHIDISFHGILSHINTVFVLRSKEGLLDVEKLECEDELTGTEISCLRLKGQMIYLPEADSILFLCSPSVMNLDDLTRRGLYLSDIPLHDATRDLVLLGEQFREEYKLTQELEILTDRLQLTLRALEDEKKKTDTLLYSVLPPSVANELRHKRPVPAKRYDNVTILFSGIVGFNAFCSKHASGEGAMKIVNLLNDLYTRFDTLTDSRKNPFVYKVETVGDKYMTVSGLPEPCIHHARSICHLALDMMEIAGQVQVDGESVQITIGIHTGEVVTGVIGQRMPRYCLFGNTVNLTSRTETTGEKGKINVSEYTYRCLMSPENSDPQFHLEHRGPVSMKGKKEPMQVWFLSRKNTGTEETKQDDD
Assay: CHO cellular assay (cGMP production, Cisbio cGMP HTRF kit)
Type: cell-based
Conditions: CHO GUCY clone 8E10, cGMP production, assay buffer with 1 mM IBMX and 20 uM ODQ, 1 h room temperature; minimum quantification limit 0.5 nM (listed 0.5 nM means ≤0.5 nM); read-out: EC50
Please treat pEC50 as minus the base-10 logarithm of the molar concentration.

compound="Cc1c(C(=O)O)cnn1-c1cccc(-c2cccc3c2C(Nc2ccc(C4CCN(C(=O)C5CC5)CC4)cc2)CC3)n1 (single isomer, unassigned; (-)) [Example 9. b). (−)]" val=6.74
compound="Cc1cc2c(c(-c3cccc(-n4ncc(C(=O)O)c4C(F)(F)F)n3)c1)C(Oc1ccc3c(c1)CCN(Cc1ccccn1)C3)CC2 (stereo not drawn) [Example 5-1]" val=7.41
compound="CCc1cc(CN2CCc3cccc(-c4cccc(-n5ncc(C(=O)O)c5C(F)(F)F)n4)c32)ccc1C1CCN(CC(F)(F)F)CC1 [Example 15]" val=8.82
compound="Cc1cc(C2CCN(C(=O)C3CC3)CC2)ccc1CC1CCc2cccc(-c3cccc(-n4ncc(C(=O)O)c4C)c3)c21 (single isomer, unassigned; (-)) [54. b). (−)]" val=6.77

Please look at the following compound next.
Return the recorded pEC50 value; entry: CCC[C@H](O)C(=O)N1CCC(c2ccc(CC3CCc4cccc(-c5cccc(-n6ncc(C(=O)O)c6CC)n5)c43)c(C)c2)CC1 (single isomer, unassigned; (-)) [40-3 (−)] 7.31
